These entries and their values trace back to ChEMBL document CHEMBL1156747.

# measurement.target: UniProtKB P08581
# Sequence (P08581 25-1390 limits assumed): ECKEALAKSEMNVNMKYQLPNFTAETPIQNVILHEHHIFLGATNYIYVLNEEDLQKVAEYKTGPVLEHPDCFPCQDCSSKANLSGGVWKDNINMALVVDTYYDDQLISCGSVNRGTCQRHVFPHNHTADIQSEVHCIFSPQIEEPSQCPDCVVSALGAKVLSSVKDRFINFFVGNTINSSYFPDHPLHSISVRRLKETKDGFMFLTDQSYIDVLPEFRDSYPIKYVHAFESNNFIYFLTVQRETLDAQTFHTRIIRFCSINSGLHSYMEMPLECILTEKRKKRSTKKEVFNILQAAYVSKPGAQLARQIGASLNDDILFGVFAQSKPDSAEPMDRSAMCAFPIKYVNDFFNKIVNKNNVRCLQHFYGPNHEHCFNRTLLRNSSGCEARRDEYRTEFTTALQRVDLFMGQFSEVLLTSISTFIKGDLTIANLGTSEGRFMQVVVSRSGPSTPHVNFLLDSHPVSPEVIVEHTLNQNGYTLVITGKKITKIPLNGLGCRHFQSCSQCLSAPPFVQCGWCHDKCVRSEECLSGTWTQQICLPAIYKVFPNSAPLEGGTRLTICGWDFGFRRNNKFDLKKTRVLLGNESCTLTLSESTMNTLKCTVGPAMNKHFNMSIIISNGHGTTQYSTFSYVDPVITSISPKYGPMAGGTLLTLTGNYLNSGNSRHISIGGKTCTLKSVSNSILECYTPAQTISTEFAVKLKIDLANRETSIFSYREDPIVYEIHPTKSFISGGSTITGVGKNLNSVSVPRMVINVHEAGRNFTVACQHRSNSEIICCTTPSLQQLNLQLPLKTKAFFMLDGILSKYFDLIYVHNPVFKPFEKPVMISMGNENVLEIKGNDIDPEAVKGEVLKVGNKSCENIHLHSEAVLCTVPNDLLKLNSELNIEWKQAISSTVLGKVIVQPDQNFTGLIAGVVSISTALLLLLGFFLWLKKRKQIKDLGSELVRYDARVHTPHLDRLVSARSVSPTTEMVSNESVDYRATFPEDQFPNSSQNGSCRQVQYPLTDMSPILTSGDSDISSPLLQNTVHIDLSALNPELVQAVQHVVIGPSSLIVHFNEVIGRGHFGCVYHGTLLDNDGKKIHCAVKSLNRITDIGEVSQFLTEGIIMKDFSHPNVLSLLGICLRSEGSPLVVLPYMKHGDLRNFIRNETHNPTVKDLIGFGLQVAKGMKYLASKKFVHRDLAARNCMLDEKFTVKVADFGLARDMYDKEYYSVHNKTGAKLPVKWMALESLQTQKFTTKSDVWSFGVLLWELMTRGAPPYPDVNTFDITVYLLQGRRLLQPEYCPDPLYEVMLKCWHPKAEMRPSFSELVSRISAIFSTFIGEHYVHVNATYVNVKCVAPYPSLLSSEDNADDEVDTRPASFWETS
# protocol: Inhibition of TPR-met autophosphorylation expressed in HEK293T cells after 150 mins by ELISA
# Format: cell-based
# run.conditions: hek-293t
assay.endpoint: log10 of IC50 (log10 of the value in nM)
The base-10 logarithm of IC50, taken with IC50 in nM, is what appears here.

CCn1cnc(C(=O)c2cc3nccc(Oc4ccc(NC(=O)CC(=O)Nc5ccccc5)cc4F)c3s2)c1 = 2.26

(Q) // fetch UniProtKB P08581 log10 of IC50 for `CCn1cnc(-c2cc3nccc(Oc4ccc(NC(=O)CC(=O)Nc5ccccc5C(F)(F)F)cc4F)c3s2)c1`
(A) 2.18

(Q) Subsequent entry: `Cn1ccnc1C(=O)c1cc2nccc(Oc3ccc(NC(=O)CC(=O)Nc4ccccc4)cc3F)c2s1`
(A) 1.60

(Q) Field entry: `CCn1cnc(-c2cc3nccc(Oc4ccc(NC(=O)CC(=O)Nc5ccccc5F)cc4F)c3s2)c1`
(A) 1.54

(Q) And `CCn1cnc(-c2cc3nccc(Oc4ccc(NC(=O)C5(C(=O)Nc6ccccc6F)CC5)cc4F)c3s2)c1` ?
(A) 2.08

(Q) What would you report for `CN(C)[C@@H]1CCN(C(=O)c2cc3nccc(Oc4ccc(NC(=O)CC(=O)Nc5ccccc5)cc4F)c3s2)C1` ?
(A) 2.75

(Q) For `CCn1cnc(-c2cc3nccc(Oc4ccc(NC(=O)CC(=O)NC5CCCCC5)cc4F)c3s2)c1` then?
(A) 2.77

(Q) And `CCn1cnc(-c2cc3nccc(Oc4ccc(NC(=O)C5(C(=O)Nc6ccccc6)CC5)cc4F)c3s2)c1` ?
(A) 0.60
